B1: CDC25A (parent)
chain: QLIDPDENKENEAFEFKKPVRPVS

Variants of: B1
method: protein stability index of a GFP-peptide fusion (GPS, HEK-293T) (PSI 1-6); higher = more stable;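 further: lentivirally expressed fusions sorted by FACS into six bins by GFP to DsRed ratio, PSI derived from sequencing read proportions per bin multiplied by bin number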
experimental conditions: c terminus: a fixed tail appended
Binary classification by protein stability index, with 4 as an inclusive lower bound for class 1; all other cases are class 0.

Please review the entries below; each comes with its answer.
D6C = class 1
P19R = class 0

State whether the measured protein stability index reaches 4, counting equality as reaching it, for P22H
class 0

State whether the measured protein stability index reaches 4, counting equality as reaching it, for D4V
class 0

State whether the measured protein stability index reaches 4, counting equality as reaching it, for R21D
class 1

State whether the measured protein stability index reaches 4, counting equality as reaching it, for L2F
class 0

State whether the measured protein stability index reaches 4, counting equality as reaching it, for P22T
class 0

State whether the measured protein stability index reaches 4, counting equality as reaching it, for L2S
class 1
